Target: PAR2 (HT-29 cells, SLIGKV activation) (Homo sapiens)
Construct: host or cells: HT-29 cells
Sequence (P55085 26-397): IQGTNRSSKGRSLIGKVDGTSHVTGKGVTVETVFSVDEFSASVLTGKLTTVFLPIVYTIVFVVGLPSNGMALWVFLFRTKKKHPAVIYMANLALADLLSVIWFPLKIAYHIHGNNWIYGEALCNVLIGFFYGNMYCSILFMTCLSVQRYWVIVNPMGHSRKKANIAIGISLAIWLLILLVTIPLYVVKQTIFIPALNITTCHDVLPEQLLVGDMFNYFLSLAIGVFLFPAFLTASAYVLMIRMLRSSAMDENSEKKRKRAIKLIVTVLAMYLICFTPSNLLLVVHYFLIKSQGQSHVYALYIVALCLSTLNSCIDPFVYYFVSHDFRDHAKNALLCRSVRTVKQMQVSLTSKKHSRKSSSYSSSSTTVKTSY
Assay: Ca FLIPR TETRA assay, ANTAGONIST mode, stimulation with 8 μM SLIGKV
Type: cell-based
Conditions: HT-29 cells, antagonist mode, stimulation with 8 μM SLIGKV
Please provide measured pIC50 for the entries that follow.
pIC50 is defined as minus the log10 of a concentration measured in mol/L.

Prompt: Value lookup for pIC50; key = Cc1cc(F)ccc1-c1cc(C(C)(C)C)c2nc(C(=O)N3CCNC(=O)C3(C)C)cn2n1
Response: 7.09

Prompt: Could you share which pIC50 value was measured for CC(C)(O)CN1CCN(C(=O)c2cn3nc(-c4ccc(F)cc4)cc(C(C)(C)C)c3n2)C(C)(C)C1=O ?
Response: 8.89

Prompt: Quick one: pIC50 of CC(=O)N1CCN(C(=O)c2cn3nc(-c4ccc(F)cc4)cc(C(C)(C)C)c3n2)C(C)(C)C1 ?
Response: 8.74

Prompt: Which measured pIC50 value corresponds to Cc1nc(C(=O)N2CCN(C(=O)c3cn4nc(-c5ccc(C)c(F)c5)cc(C(C)C)c4n3)C(C)(C)C2)c[nH]1 ?
Response: 8.70

Prompt: I'd like to know its pIC50. The compound in question is Cc1nc(C(=O)N2CCN(C(=O)c3cn4nc(-c5ccc(Cl)cc5)cc(C(C)(C)C)c4n3)C(C)(C)C2)n[nH]1
Response: 9.52

Prompt: Returns the measured pIC50 for the input compound. Input: Cc1ccc(-c2cc(C(C)C)c3nc(C(=O)N4CCN(C(=O)c5ccn[nH]5)CC4(C)C)cn3n2)cc1F
Response: 8.85

Prompt: What value of pIC50 has been recorded for this entry: CC(C)c1cc(-c2ccc(F)cc2)nn2cc(C(=O)N3CCN(C(=O)C(O)C(C)C)C[C@H]3C)nc12 (stereo partly shown)
Response: 6.24
